# Protocol Details: clinical
# Particulars: both, human, in vivo, iv, 30 mg, Cmax (geoMean), plasma, single IV 30 mg fasudil over 30 min, healthy subjects
Structures can show the parent of a compound that is named as a salt.
Reported Metric: Cmax (ng/mL)

>>> quantitative_readout("O=S(=O)(c1cccc2c(O)nccc12)N1CCCNCC1 [hydroxyfasudil]")
108
>>> quantitative_readout("O=S(=O)(c1cccc2cnccc12)N1CCCNCC1 [fasudil, fasudil hydrochloride, reference compound]")
101

====

# Protocol Details: clinical
# Particulars: both, human, in vivo, iv, 30 mg
Where a name gives a salt, the structure may show the parent alone.
Reported Metric: Tmax (min)

1: O=S(=O)(c1cccc2cnccc12)N1CCCNCC1 [fasudil, fasudil hydrochloride, reference compound]
2: O=S(=O)(c1cccc2c(O)nccc12)N1CCCNCC1 [hydroxyfasudil]
Param pair: 1 , 2 . Output: the one whose Tmax is numerically greater. # answer = label of selected item
2
